test system: 695427-040-R-J1-PDC complex spheroid viability; assay: Anticancer human tumor 695427-040-R-J1-PDC patient-derived colon adenocarcinoma cell line growth inhibition [POLQ]; conditions: second compound 10 µM; first compound 0.0316 µM; stronger effect = lower value;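 also: spheroids exposed to compounds for seven days; 100% = DMSO vehicle control viability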
parameter: viability, T/C (%)
Number in %, nothing else.

// known answers, use as guide
compound	value observed
CCc1cc2c(N3CCc4c(cc(Cn5ccnc5)cc4-c4cn(C)nc4C(F)(F)F)C3=O)ccnc2c(OC)n1 + Nc1ccc(C#CCN(C(=O)Cc2ncc(C(F)(F)F)cc2C(F)(F)F)c2ccc(F)cc2)nn1	101
CCc1cc2c(N3CCc4c(cc(Cn5ccnc5)cc4-c4cn(C)nc4C(F)(F)F)C3=O)cc(C)nc2c(OC)n1 + COC1C(OC(N)=O)C(O)C(Oc2ccc3c(O)c(NC(=O)c4ccc(O)c(CC=C(C)C)c4)c(=O)oc3c2C)OC1(C)C	116
CC1COCCN1c1cc(C2(S(C)(=N)=O)CC2)nc(-c2ccnc3[nH]ccc23)n1 (stereo unspecified) + Cc1cccc(N(C)C(=O)C2C(O)CCN2c2nc(C)cc(C(F)(F)F)c2C#N)c1	93.1

Task: Which viability, T/C is reported for this compound? CC[C@@]1(O)C(=O)OCc2c1cc1n(c2=O)Cc2cc3c(CN(C)C)c(O)ccc3nc2-1 + Nc1ccc(C#CCN(C(=O)Cc2ncc(C(F)(F)F)cc2C(F)(F)F)c2ccc(F)cc2)nn1
Output: 95.3

Task: Also check CNCc1ccc(-c2[nH]c3cc(F)cc4c3c2CCNC4=O)cc1 + COC1C(OC(N)=O)C(O)C(Oc2ccc3c(O)c(NC(=O)c4ccc(O)c(CC=C(C)C)c4)c(=O)oc3c2C)OC1(C)C
Output: 98.1

Task: Now the compound CC[C@@]1(O)C(=O)OCc2c1cc1n(c2=O)Cc2cc3c(CN(C)C)c(O)ccc3nc2-1 + COC1C(OC(N)=O)C(O)C(Oc2ccc3c(O)c(NC(=O)c4ccc(O)c(CC=C(C)C)c4)c(=O)oc3c2C)OC1(C)C
Output: 105

Task: Next entry: CC1COCCN1c1cc(C2(S(C)(=N)=O)CC2)nc(-c2ccnc3[nH]ccc23)n1 (stereo unspecified) + COC1C(OC(N)=O)C(O)C(Oc2ccc3c(O)c(NC(=O)c4ccc(O)c(CC=C(C)C)c4)c(=O)oc3c2C)OC1(C)C
Output: 104
